- Tested on: S. aureus Russell
- Assay text: MIC by standard microtitre technique, amoxycillin with and without compound
- Type: cell-based
- Setup conditions: Amoxycillin + compound; concentration of inhibitor 1.0 µg/ml

# Compound, MIC, µg/mL
rows = [
    ("O=C(O)[C@H]1/C(=C/CN2CCOCC2)O[C@@H]2CC(=O)N21 [Example 11, 9-(Morpholino)deoxyclavulanic acid]", 0.6),
    ("CC1CN(C/C=C2\\O[C@@H]3CC(=O)N3[C@H]2C(=O)O)CC(C)O1 (some centres unmarked) [Example 13]", 1.25),
    ("CCOC(=O)N1CCN(C/C=C2\\O[C@@H]3CC(=O)N3[C@H]2C(=O)O)CC1 [Example 4]", 1.25),
    ("O=C(O)[C@H]1/C(=C/CN2CCN(c3ccccc3)CC2)O[C@@H]2CC(=O)N21 [Example 15]", 0.16),
    ("O=C(OCc1ccc([N+](=O)[O-])cc1)[C@H]1/C(=C/CN2CCSCC2)O[C@@H]2CC(=O)N21 [Example 8]", 0.62),
]

----------
- Test system: K. aerogenes E70
- Assay text: MIC by standard microtitre technique, amoxycillin with and without compound
- Type: cell-based
- Setup conditions: Amoxycillin + compound; concentration of inhibitor 5.0 µg/ml
Result type: MIC (µg/mL)

# Compound, Result type, Numeric result
rows = [
    ("O=C(O)[C@H]1/C(=C/CN2CCOCC2)O[C@@H]2CC(=O)N21", "MIC", 1.5),
    ("O=C(O)[C@H]1/C(=C/CN2CCN(c3ccccc3)CC2)O[C@@H]2CC(=O)N21", "MIC", 6.2),
    ("CC1CN(C/C=C2\\O[C@@H]3CC(=O)N3[C@H]2C(=O)O)CC(C)O1 (some centres unmarked)", "MIC", 1.5),
    ("CCOC(=O)N1CCN(C/C=C2\\O[C@@H]3CC(=O)N3[C@H]2C(=O)O)CC1", "MIC", 1.5),
    ("O=C(OCc1ccc([N+](=O)[O-])cc1)[C@H]1/C(=C/CN2CCSCC2)O[C@@H]2CC(=O)N21", "MIC", 1.6),
]

----------
- System: E. coli JT39
- Assay text: MIC by standard microtitre technique, amoxycillin with and without compound
- Assay type: cell-based
- Setup conditions: Amoxycillin + compound; concentration of inhibitor 1.0 µg/ml
# MIC annotations
Result type: MIC (µg/mL)

# Compound, Target system, Result type, Numeric result
rows = [
    ("CCOC(=O)N1CCN(C/C=C2\\O[C@@H]3CC(=O)N3[C@H]2C(=O)O)CC1", "E. coli JT39", "MIC", 31.2),
    ("CC1CN(C/C=C2\\O[C@@H]3CC(=O)N3[C@H]2C(=O)O)CC(C)O1 (some centres unmarked)", "E. coli JT39", "MIC", 31.2),
    ("O=C(OCc1ccc([N+](=O)[O-])cc1)[C@H]1/C(=C/CN2CCSCC2)O[C@@H]2CC(=O)N21", "E. coli JT39", "MIC", 8.0),
    ("O=C(O)[C@H]1/C(=C/CN2CCOCC2)O[C@@H]2CC(=O)N21", "E. coli JT39", "MIC", 16.0),
    ("O=C(O)[C@H]1/C(=C/CN2CCN(c3ccccc3)CC2)O[C@@H]2CC(=O)N21", "E. coli JT39", "MIC", 31.2),
]
